# Test system: OVCAR-5 ovarian
# ASSAY PROTOCOL: NCI-60 one-dose screen, 48 h (100 = growth as untreated, 0 = no growth, -100 = all killed)
# TEST CONTEXT: 10 µM
# Procedure: Growth inhibition of the OVCAR-5 human tumor cell line is measured as a screen for anti-cancer activity. Cells are grown in 96 well plates and exposed to the test compound for 48 hours. Compounds are tested at a single concentration, which is 10^-5 M for most compounds. The reported endpoint is percent growth (GI% or GIPRCNT), where numbers from 0 - 100% represent growth inhibition, and numbers from -100% - 0 represent cell death. For example, a value of 40 represents 60% growth inhibition. […]
Compounds without any hit were thinned out: in the full panel of roughly 83,000, 20% have a hit.
We begin with a simple list: items and their reported growth.
State the answer as a number, implicitly in %.

Below are worked cases with known answers.
• COc1cc2c3cc1Oc1c(OC)c(OC)cc4c1C(Cc1ccc(O)c(c1)Oc1ccc(cc1)CC3N(C)CC2)N(C)CC4 (stereo not drawn) = -0.193
• O=C(O)CCC(=O)OC(C1CO1)C(OC(=O)CCC(=O)O)C1CO1 (stereo not drawn) = 93.4
• NCCC(=O)c1ccc(Cl)cc1 = 118
• S=C1NCc2cncnc2N1 = 97.8
• C=C[Si](OC(C)=O)(OC(C)=O)OC(C)=O = 115

Reported growth ( COc1cc2c3c(n(C)c(=O)c2cc1OC)-c1cc2c(cc1C3=O)OCO2 ) = 78.4

get_value(item= Nc1ccc(N)c([N+](=O)[O-])c1 , readout=growth) returns 104

The compound Cc1cc(=O)n(-c2ccc(F)cc2)[nH]1 showed growth equal to 94.9
